The values you see were collected from patent US20240132525A1.

# MEASUREMENT DESCRIPTION: Dog LM (liver microsome) assay
# Format: in vitro ADME
# PARTICULARS: Table 3b, comparator compounds; predicted clearance as percent of liver blood flow
ASSAY ENDPOINT: Dog LM QH (%)
Your answer is read as %, so omit the unit and give the number.

Completed entries (count: 3):
OB1OCc2cc(Nc3ncc(F)c(NC4CCCCC4)n3)ccc21 [Example C017] ... 53.5
CCC(CC)Nc1nc(Nc2cc(C)c3c(c2)COB3O)ncc1C [Example C004] ... 34.5
Cc1cnc(Nc2ccc3c(c2)C(C)(C)OB3O)nc1NC1CCCC1 [Example C009] ... 83.4

Lab note: measured Dog LM QH of OB1OCc2cc(Nc3ncc(C(F)(F)F)c(NC4CCCC4)n3)ccc21 [Example C019] was 73.8

---

# Dog LM QH per entry
# MEASUREMENT DESCRIPTION: Dog LM (liver microsome) assay
# Type: in vitro ADME
# PARTICULARS: Table 3a; predicted clearance as percent of liver blood flow, 1 μM, 1 mg/ml microsomal protein
# Experimental: Dog LM (Liver Microsome) Assay The metabolic degradation of the test compound is assayed at 37° C. with pooled liver microsomes from dogs (Beagle). […] Additionally, the NADPH-independent degradation was monitored in incubations without NADPH, terminated at the last time point. […] The half-life (t½ INVITRO) is determined by the slope of the semilogarithmic plot of the concentration-time profile. The intrinsic clearance (CL_[…]) is calculated by considering the amount of protein in the incubation: CL_[…] […]
Your answer is read as %, so omit the unit and give the number.

Cc1cnc(Nc2cc(Cl)c3c(c2)C(C(C)C)=CB(O)O3)nc1N[C@H]1COCC[C@@H]1C#N (single isomer, unassigned) [Example 040b] ... 47.4
Cc1cnc(Nc2ccc3c(c2)C(C(C)C)=CB(O)O3)nc1N[C@H]1COCC[C@@H]1C#N (single isomer, unassigned) [Example 039b] ... 72.1

With those in mind, consider the next molecule.
Lab note: measured Dog LM QH of Cc1cnc(Nc2ccc3c(c2)OB(O)C=C3)nc1N[C@@H]1COCC[C@H]1C#N (relative stereo) was 74.7

---

# TARGET UNDER TEST: PDE4B (Homo sapiens (Human))
# Sequence (Q07343 whole entry, species assumed): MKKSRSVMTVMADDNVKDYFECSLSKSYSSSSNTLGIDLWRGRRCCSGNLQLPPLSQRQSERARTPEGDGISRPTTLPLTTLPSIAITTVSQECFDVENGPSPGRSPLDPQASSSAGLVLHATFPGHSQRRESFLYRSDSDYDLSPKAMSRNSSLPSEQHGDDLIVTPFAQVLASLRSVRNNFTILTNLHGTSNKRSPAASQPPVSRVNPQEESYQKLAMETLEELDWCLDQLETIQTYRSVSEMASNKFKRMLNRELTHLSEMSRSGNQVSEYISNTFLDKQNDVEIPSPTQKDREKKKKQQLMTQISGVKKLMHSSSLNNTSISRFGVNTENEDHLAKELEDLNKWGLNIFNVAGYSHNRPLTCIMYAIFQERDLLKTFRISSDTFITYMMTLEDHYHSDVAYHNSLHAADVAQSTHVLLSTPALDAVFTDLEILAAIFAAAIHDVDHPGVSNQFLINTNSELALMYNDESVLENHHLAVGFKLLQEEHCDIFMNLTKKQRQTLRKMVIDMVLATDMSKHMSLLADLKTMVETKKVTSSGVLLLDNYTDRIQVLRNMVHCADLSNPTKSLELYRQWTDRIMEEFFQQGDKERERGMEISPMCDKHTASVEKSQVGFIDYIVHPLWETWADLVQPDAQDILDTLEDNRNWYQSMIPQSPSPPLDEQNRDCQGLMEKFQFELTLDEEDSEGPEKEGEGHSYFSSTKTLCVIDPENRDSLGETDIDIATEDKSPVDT
# MEASUREMENT DESCRIPTION: PDE4B inhibition
# Format: biochemical
# PARTICULARS: Table 3b, comparator compounds
ASSAY ENDPOINT: IC50 (nM)
Your answer is read as nM, so omit the unit and give the number.

Cc1cnc(Nc2cc(Cl)c3c(c2)COB3O)nc1NC1CCCC1 ... 113

Reading of IC50 for `OB1OCc2cc(Nc3ncc(Cl)c(NC4CCCCC4)n3)ccc21` with PDE4B (Homo sapiens (Human)): 108

Reading of IC50 for `OB1OCc2cc(Nc3ncc(C(F)(F)F)c(NC4CCCC4)n3)ccc21` with PDE4B (Homo sapiens (Human)): 275

Reading of IC50 for `Cc1cnc(Nc2ccc3c(c2)COB3O)nc1NC1CCCCC1` with PDE4B (Homo sapiens (Human)): 242

Reading of IC50 for `CCC(CC)Nc1nc(Nc2ccc3c(c2)COB3O)ncc1Cl` with PDE4B (Homo sapiens (Human)): 379

Reading of IC50 for `CCC(CC)Nc1nc(Nc2ccc3c(c2)COB3O)ncc1C` with PDE4B (Homo sapiens (Human)): 92.2

Reading of IC50 for `OB1OCc2cc(Nc3ncc(C(F)(F)F)c(NC4CCCCC4)n3)ccc21` with PDE4B (Homo sapiens (Human)): 37.6

Reading of IC50 for `OB1OCc2cc(Nc3ncc(Cl)c(NC4CCCC4)n3)ccc21` with PDE4B (Homo sapiens (Human)): 52.7

Reading of IC50 for `Cc1cnc(Nc2ccc3c(c2)C(C)(C)OB3O)nc1NC1CCCC1` with PDE4B (Homo sapiens (Human)): 761

---

# TARGET UNDER TEST: JAK2 (Homo sapiens (Human), UniProt O60674)
# Sequence (O60674 whole entry, species assumed): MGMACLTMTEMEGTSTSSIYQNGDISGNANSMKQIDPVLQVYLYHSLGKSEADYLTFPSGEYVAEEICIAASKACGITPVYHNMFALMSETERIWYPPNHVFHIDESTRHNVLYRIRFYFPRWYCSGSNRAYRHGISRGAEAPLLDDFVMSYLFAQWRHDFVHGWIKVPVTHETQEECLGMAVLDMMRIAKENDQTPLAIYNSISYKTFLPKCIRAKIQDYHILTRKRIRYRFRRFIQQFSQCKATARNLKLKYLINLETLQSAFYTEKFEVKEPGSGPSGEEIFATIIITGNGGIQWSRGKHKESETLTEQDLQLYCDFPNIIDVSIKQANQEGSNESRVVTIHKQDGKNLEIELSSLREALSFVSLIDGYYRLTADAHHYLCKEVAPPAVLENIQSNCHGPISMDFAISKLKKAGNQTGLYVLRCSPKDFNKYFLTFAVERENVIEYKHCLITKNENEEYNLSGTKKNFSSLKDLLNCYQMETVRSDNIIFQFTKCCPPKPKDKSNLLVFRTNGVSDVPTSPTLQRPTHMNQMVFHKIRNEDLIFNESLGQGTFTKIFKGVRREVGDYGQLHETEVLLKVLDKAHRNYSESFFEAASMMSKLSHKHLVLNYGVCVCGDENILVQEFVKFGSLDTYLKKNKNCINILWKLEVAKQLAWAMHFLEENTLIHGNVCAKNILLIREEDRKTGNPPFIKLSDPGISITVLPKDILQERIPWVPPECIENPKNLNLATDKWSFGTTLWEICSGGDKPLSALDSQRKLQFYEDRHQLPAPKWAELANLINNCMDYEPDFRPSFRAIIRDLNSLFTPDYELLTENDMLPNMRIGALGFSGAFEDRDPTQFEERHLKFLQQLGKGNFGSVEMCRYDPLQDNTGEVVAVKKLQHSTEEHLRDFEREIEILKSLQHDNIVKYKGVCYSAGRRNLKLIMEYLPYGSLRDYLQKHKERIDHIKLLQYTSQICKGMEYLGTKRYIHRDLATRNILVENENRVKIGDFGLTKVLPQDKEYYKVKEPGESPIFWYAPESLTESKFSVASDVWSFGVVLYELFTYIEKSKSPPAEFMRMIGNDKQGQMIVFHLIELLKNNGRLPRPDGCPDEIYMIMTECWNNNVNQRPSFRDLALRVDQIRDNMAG
# MEASUREMENT DESCRIPTION: Biochemical kinase assay (33P-ATP filter-binding), JAK2
# PARTICULARS: IC50 JAK2, Table 3a
# Text: Biochemical Kinase Assay Protocol (JAK) Reaction Procedure: • 1. […] Detected kinase activity by filter-binding method.
# IC50 per entry
Your answer is read as nM, so omit the unit and give the number.

Lab note: measured IC50 of Cc1cc(Nc2ncc(Cl)c(N[C@H]3COCC[C@@H]3C#N)n2)cc2c1B(O)OC2 (single isomer, unassigned) [Example 041b] was 134

Lab note: measured IC50 of Cc1cc(Nc2ncc(Cl)c(N[C@H]3COCC[C@@H]3C#N)n2)cc2c1B(O)OC2 (single isomer, unassigned) [Example 041a] was 3.1

Lab note: measured IC50 of Cc1cnc(Nc2ccc3c(c2)COB3O)nc1N[C@@H]1COCC[C@H]1C#N (single isomer, unassigned) [Example 026a] was 1.6

---

# TARGET UNDER TEST: JAK2 (Homo sapiens (Human), UniProt O60674)
# MEASUREMENT DESCRIPTION: Biochemical kinase assay (33P-ATP filter-binding), JAK2
# PARTICULARS: Table 3a; read-out: IC50 JAK2
# log10 IC50 per entry
Give log10 of IC50, with IC50 taken in nM.

Completed entries (count: 5):
Cc1cnc(Nc2cc(Cl)c3c(c2)COB3O)nc1N[C@@H]1CCC[C@H]1C#N (single isomer, unassigned) [Example 003b] ... 1.92
Cc1cnc(Nc2cc(Cl)c3c(c2)COB3O)nc1NC1COCCC1C#N (racemic) [Example 031] ... 1.61
Cc1cnc(Nc2ccc3c(c2)C(C)(C)OB3O)nc1N[C@@H]1COCC[C@H]1C#N (relative stereo) [Example 032] ... 0.52
Cc1cnc(Nc2cc3c(c(C(F)(F)F)c2)B(O)OC3)nc1NC1CCCCC1C#N (racemic) [Example 011] ... 1.57
Cc1cnc(Nc2cc3c(c(C(F)(F)F)c2)B(O)OC3)nc1N[C@@H]1COCC[C@H]1C#N (single isomer, unassigned) [Example 033a] ... 0.91

Reading of log10 IC50 for Cc1cnc(Nc2cc3c(c(C(F)(F)F)c2)B(O)OC3)nc1N[C@H]1COC[C@@H]1C#N (single isomer, unassigned) [Example 043b] with JAK2 (Homo sapiens (Human), UniProt O60674): 2.47

Reading of log10 IC50 for N#C[C@@H]1CCOC[C@H]1Nc1nc(Nc2cc(Cl)c3c(c2)COB3O)ncc1Cl (relative stereo) [Example 048] with JAK2 (Homo sapiens (Human), UniProt O60674): 1.19

Reading of log10 IC50 for Cc1cnc(Nc2cc(Cl)c3c(c2)COB3O)nc1N[C@H]1CCCOC1 [Example 030b] with JAK2 (Homo sapiens (Human), UniProt O60674): 1.96

Reading of log10 IC50 for N#C[C@@H]1CCOC[C@H]1Nc1nc(Nc2ccc3c(c2)COB3O)ncc1Cl (relative stereo) [Example 047] with JAK2 (Homo sapiens (Human), UniProt O60674): 0.88

Reading of log10 IC50 for Cc1cnc(Nc2cc3c(c(C(F)(F)F)c2)B(O)OC3)nc1N[C@H]1COC[C@@H]1C#N (single isomer, unassigned) [Example 043a] with JAK2 (Homo sapiens (Human), UniProt O60674): 1.37

---

# TARGET UNDER TEST: PDE4B (Homo sapiens (Human))
# MEASUREMENT DESCRIPTION: PDE4B inhibition
# Assay type: biochemical
# PARTICULARS: Table 3b, comparator compounds
# pIC50 per entry
// pIC50 here means minus log10 of the molar concentration (mol/L)

Completed entries (count: 3):
OB1OCc2cc(Nc3nccc(NC4CCCCC4)n3)ccc21 ... 6.02
CCC(CC)Nc1nc(Nc2cc(F)c3c(c2)COB3O)ncc1C ... 6.67
Cc1cnc(Nc2ccc3c(c2)COB3O)nc1NC1CCCC1 ... 6.94

Lab note: measured pIC50 of `OB1OCc2cc(Nc3ncc(Cl)c(NC4CCCC4)n3)cc(F)c21` was 7.07

---

# TARGET UNDER TEST: JAK1 (Homo sapiens (Human), UniProt P23458)
# Sequence (P23458 whole entry, species assumed): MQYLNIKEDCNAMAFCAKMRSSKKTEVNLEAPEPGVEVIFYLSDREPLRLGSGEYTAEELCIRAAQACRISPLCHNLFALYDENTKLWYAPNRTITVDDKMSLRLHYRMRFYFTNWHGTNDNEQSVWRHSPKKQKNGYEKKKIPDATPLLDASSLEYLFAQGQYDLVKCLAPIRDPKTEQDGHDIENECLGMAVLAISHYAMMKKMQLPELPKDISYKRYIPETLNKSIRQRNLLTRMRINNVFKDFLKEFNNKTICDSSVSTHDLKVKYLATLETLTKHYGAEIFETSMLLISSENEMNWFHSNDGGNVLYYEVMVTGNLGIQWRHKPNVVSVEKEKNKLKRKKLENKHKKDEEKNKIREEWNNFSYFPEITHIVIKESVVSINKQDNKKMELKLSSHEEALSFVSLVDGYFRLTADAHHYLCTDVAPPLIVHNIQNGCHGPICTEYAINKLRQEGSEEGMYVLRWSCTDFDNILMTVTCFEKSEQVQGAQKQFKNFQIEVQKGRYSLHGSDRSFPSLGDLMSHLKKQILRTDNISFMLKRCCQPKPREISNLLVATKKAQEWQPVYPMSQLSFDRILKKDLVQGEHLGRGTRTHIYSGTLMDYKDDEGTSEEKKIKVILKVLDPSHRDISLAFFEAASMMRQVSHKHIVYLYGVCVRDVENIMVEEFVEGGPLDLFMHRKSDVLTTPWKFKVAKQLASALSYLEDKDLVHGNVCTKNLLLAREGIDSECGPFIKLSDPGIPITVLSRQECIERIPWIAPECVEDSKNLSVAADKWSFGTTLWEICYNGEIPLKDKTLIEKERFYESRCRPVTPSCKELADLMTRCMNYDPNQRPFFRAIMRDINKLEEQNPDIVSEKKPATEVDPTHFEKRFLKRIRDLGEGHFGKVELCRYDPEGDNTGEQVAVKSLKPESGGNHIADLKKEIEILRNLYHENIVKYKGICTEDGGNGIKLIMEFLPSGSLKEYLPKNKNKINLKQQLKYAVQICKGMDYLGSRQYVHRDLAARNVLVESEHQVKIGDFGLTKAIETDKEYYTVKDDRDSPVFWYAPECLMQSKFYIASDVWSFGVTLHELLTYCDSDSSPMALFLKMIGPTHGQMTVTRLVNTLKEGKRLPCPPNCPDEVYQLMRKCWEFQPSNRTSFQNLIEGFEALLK
# MEASUREMENT DESCRIPTION: Biochemical kinase assay (33P-ATP filter-binding), JAK1
# PARTICULARS: Table 3a; read-out: IC50 JAK1
ASSAY ENDPOINT: IC50 (nM)
Your answer is read as nM, so omit the unit and give the number.

COc1cc(Nc2ncc(C)c(N[C@H]3COCC[C@@H]3C#N)n2)cc2c1B(O)OC2 (single isomer, unassigned) [Example 044a] ... 0.2
Cc1cnc(Nc2cc3c(c(C(F)(F)F)c2)B(O)OC3)nc1N[C@@H]1CCC[C@H]1C#N (relative stereo) [Example 006] ... 1

Lab note: measured IC50 of Cc1cnc(Nc2cc3c(c(C(F)(F)F)c2)B(O)OC3)nc1N[C@H]1COC[C@@H]1C#N (single isomer, unassigned) [Example 043b] was 7.6

Lab note: measured IC50 of Cc1cnc(Nc2cc3c(c(C(F)(F)F)c2)OB(O)C=C3)nc1N[C@@H]1COCC[C@H]1C#N (relative stereo) [Example 037] was 3.1

Lab note: measured IC50 of Cc1cnc(Nc2cc(F)c3c(c2)COB3O)nc1N[C@@H]1COCC[C@H]1C#N (single isomer, unassigned) [Example 029a] was 0.02

Lab note: measured IC50 of N#C[C@@H]1CCCC[C@H]1Nc1nc(Nc2cc(F)c3c(c2)COB3O)ncc1Cl (relative stereo) [Example 023] was 0.2

Lab note: measured IC50 of N#C[C@@H]1CCCC[C@H]1Nc1nc(Nc2ccc3c(c2)COB3O)ncc1Cl (relative stereo) [Example 017] was 0.4
